target: Methionine aminopeptidase 2 (Homo sapiens) (UniProt P50579)
Sequence (P50579 whole entry, looked up): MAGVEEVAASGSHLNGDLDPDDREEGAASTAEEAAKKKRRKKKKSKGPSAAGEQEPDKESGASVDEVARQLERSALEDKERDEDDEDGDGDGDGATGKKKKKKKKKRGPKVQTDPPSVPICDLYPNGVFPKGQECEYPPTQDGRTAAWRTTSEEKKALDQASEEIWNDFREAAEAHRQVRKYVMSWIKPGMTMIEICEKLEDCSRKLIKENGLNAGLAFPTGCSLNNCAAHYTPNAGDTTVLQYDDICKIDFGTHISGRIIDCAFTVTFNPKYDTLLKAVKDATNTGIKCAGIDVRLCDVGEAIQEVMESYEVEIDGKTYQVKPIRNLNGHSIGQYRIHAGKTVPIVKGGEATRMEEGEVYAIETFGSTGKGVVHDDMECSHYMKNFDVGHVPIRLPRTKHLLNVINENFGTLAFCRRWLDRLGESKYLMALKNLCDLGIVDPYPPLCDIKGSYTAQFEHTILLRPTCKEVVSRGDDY
parameter: pIC50
pIC50 is defined as minus the log10 of a concentration measured in mol/L.

// lookup pIC50 for `CC(=O)c1[nH]c2ccc(Cl)cc2c1-c1ccccc1`
5.80

// lookup pIC50 for `NC(=O)c1[nH]c2ccc(Cl)cc2c1-c1ccc(Cl)cc1`
6.40

// lookup pIC50 for `NC(=O)c1[nH]c2ccc(Cl)cc2c1-c1ccccc1OC(F)(F)F`
6.40

// lookup pIC50 for `CC(C)Oc1ccccc1-c1c(C(N)=O)[nH]c2cc(F)c(Cl)cc12`
8.30

// lookup pIC50 for `N#Cc1ccc(-c2c(C(N)=O)[nH]c3ccc(Cl)cc23)cc1`
6.30

// lookup pIC50 for `NC(=O)c1[nH]c2ccc(Cl)cc2c1-c1ccccc1`
6.50

// lookup pIC50 for `NC(=O)c1[nH]c2ccc(Cl)cc2c1-c1ccc(-c2ccn[nH]2)cc1`
6.60

// lookup pIC50 for `NC(=O)c1[nH]c2ccc(Cl)c(F)c2c1-c1ccccc1`
5.40

// lookup pIC50 for `CC(C)Oc1cc(N2CCNCC2)ccc1-c1c(C(N)=O)[nH]c2cc(F)c(F)cc12`
8.70

// lookup pIC50 for `CN(C)c1ccc(-c2c(C(N)=O)[nH]c3ccc(Cl)cc23)cc1`
7.00

// lookup pIC50 for `NC(=O)c1[nH]c2cc(F)c(Cl)cc2c1-c1ccccc1`
7.20

// lookup pIC50 for `NC(=O)c1[nH]c2ccc(Cl)cc2c1-c1ccc(N2CCOCC2)cc1`
7.30

// lookup pIC50 for `NC(=O)c1[nH]c2ccc(Cl)cc2c1-c1ccc(C(=O)N2CCCC2)cc1`
6.60

// lookup pIC50 for `NC(=O)c1[nH]c2ncc(Cl)cc2c1-c1ccccc1`
5.90

// lookup pIC50 for `NC(=O)c1[nH]c2c(Cl)cccc2c1-c1ccccc1`
5.10
